TARGET OR TEST SYSTEM: DRB*0301 (human, UniProt P01903 26-216)
PROCEDURE TEXT: HLA competition binding

BINDER | UNITS OF MEASURE | IC50
MGEVVAATPTSLLIS [N-terminal to BC Loop SEQ ID NO 53] | nM | 1000

Recorded values, source patent US20150051149A1.
